# TARGET_OR_SYSTEM: T1, CoV-OC43 Spike ectodomain (OC43-CoV, UniProt P36334 14-1263)
# T1 chain: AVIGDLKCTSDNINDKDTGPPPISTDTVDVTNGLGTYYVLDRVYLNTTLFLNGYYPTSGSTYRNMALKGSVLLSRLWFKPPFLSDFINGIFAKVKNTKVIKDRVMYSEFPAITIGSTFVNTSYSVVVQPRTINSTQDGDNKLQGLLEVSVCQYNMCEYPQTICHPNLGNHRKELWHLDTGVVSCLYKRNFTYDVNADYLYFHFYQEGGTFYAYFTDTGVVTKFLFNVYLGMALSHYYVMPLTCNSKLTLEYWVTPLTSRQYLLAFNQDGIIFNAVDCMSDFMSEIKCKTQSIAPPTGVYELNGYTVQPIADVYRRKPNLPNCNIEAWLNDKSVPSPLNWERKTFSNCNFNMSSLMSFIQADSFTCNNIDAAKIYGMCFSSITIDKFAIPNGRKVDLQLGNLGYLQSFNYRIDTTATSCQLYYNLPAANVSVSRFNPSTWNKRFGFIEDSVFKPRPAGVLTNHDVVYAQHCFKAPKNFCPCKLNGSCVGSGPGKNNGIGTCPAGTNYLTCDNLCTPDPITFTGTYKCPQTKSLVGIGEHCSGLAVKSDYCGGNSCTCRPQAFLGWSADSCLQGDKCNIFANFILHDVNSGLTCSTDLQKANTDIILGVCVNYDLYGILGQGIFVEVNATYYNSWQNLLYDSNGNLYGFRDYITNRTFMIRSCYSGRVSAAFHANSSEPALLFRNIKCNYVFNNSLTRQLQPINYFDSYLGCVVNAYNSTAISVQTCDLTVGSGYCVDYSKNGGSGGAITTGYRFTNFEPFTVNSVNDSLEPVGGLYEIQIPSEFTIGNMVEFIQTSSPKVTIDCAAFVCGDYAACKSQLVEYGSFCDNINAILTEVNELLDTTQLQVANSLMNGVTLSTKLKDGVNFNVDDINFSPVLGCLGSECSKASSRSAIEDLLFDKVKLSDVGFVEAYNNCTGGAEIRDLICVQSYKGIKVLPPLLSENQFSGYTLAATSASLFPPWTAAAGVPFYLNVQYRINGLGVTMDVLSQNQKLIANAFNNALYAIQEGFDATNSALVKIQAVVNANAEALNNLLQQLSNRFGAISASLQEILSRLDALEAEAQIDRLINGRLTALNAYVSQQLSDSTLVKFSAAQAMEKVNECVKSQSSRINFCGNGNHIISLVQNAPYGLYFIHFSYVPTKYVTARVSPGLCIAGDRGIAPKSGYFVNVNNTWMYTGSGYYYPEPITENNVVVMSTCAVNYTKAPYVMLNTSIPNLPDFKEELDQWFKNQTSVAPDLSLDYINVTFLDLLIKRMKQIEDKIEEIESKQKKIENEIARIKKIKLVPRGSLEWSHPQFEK
# PROTOCOL: ELISA, coated antigen; further: test concentration or dose not given here
ELISA OD for assorted binders
State just the number; it will be interpreted in OD.

Answered cases to consult:
# BINDER, RESULT_VALUE
measured = [
    ("Cv2.3235 (recombinant human IgG1) (antibody, V domains shown) VH: EVQLVESGGGLIQPGGSLRLSCAASGFTVSRNYMSWVRQAPGKGLEWVSVIYSGGSTFYADSVKGRFTISRDNSKNTLYLQMNSLRAEDTAVYYCARDGDYYGMDVWGQGTTVTVSS VL: DIQMTQSPSFLSASVGDRVTITCRASQGISSFLAWYQQKPGKAPKLLIYGASTLQSGVTSRFSGSGSGTEFTLTISSLQPEDFATYYCQRLDSYPPITFGQGTRLEIKR", 0.3),
    ("Cv2.1353 (recombinant human IgG1) (antibody, V domains shown) VH: EVQLVESGGGLVQPGGSLRLSCAASGVTVSSNYMNWVRQAPGKGLEWVSVIYSGGSTFYADSVKGRFIISRDNSKNTLYLQMNSLKTEDTAVYYCARDLGPMGFDIWGQGTMVTVSS VL: DIQMTQSPSFLSASVGDRVTITCRASQGISSYLAWYQQKPGKAPKLLIYAASTLQSGVPSRFSGSGSGTEFTLTISSLQPEDFATYYCQQLNSDPPVTFGPGTKVDIKR", 0.8),
    ("Cv2.5213 (recombinant human IgG1) (antibody, V domains shown) VH: EVQLVESGGGLIQPGGSLRLSCAASGFTVSSNYMSWVRQAPGKGLEWVSLIYSGGSTYYADSVKGRFTISRDNSKNTLYLQMNSLRAEDTAVYYCARDLNYYGMDVWGQGATVTVSS VL: DIQMTQSPSSLSASVGDRVTITCRASQGISSYLAWYQQKPGKAPKLLIYAASTLQSGVPSRFSGSGSGTDFTLTISSLQPEDFATYYCQQLDSYSPFTFGPGTKVDIKR", 0.7),
]

Now look at this entry.
Lab note: measured ELISA OD of Cv2.3194 (recombinant human IgG1) (antibody, V domains shown) VH: EVQLVESGGGLIQPGGSLRLSCAASGITVTSNYMSWVRQAPGKGLEWVSVIYPGGSTFYADSVKGRFTISRDNSKNTLYLQMNSLRAEDTAVYYCARDLVVYGMDVWGQGTTVTVSS VL: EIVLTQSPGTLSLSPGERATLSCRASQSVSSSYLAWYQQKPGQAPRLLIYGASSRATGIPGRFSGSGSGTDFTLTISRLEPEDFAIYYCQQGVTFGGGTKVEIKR was 0.8
